// provenance: a melting point compilation (Tetko et al.)

Catalogue of melting point values

// `O=Cc1ccc(-c2ncccn2)cc1` : melting point value = 108 to 109 °C

The compound `COc1ccccc1/N=N/c1c(N)nn2c(-c3ccccc3)cc(=O)[nH]c12` showed melting point equal to 303 to 305 °C

The compound listed as O=[N+]([O-])c1cc([N+](=O)[O-])c(C2CO2)cc1C1CO1 (centres undefined) has a reported melting point of 153 to 154 °C

Reported melting point of `CN1CCN(Cc2ccc(I)cc2)CC1` : 105 to 106 °C

Briefly, melting point measured for `CC(C)[C@@H](O)[C@H](N)C(=O)O` : 225 to 227 °C

The compound listed as `Nc1ncnc(Nc2ccc(Cl)cc2)n1` has a reported melting point of 233 °C

# compound `NC(=O)c1ccc(F)cc1F` ; its melting point = 161 °C

response.value for `Cc1nc(-c2ccc(S(=O)(=O)Cl)cc2)cs1` (field: melting point) = 111 to 112 °C

Recorded melting point (compound `CC(C)(C)P(C(C)(C)C)C(C)(C)C` ): 30 °C
